- systemTested: UniProt P22607
- Sequence (P22607 23-806): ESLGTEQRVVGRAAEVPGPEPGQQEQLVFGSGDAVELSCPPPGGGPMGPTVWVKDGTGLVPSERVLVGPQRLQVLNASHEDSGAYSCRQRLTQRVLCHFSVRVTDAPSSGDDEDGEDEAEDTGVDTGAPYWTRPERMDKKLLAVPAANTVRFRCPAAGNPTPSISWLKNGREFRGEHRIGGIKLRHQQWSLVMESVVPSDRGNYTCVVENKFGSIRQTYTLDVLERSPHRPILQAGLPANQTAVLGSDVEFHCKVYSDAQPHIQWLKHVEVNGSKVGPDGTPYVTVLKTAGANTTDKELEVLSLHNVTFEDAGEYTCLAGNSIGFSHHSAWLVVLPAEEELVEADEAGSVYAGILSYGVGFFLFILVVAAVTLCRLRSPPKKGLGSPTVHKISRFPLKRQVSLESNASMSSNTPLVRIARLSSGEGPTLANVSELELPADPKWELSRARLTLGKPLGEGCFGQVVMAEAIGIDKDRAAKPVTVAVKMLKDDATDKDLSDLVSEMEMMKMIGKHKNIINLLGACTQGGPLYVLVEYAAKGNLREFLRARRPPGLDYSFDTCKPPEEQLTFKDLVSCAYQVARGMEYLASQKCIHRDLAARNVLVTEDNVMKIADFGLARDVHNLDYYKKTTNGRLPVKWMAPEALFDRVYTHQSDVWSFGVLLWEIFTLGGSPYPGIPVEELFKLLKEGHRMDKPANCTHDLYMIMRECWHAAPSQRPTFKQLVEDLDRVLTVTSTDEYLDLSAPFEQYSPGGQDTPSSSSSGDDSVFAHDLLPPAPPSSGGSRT
endpoint: pIC50
Quick note: pIC50 values are minus log10 of concentrations in mol/L.

Entry COc1cc2nccc(Oc3ccc(NC(=O)NC4CC4)c(Cl)c3)c2cc1C(N)=O [Lenvatinib, Lenvatinib mesilate] : pIC50 on UniProt P22607 = 7.28

The origin of these recorded values is paper PMC4177084.
